Biological target: Porcine pancreatic phospholipase A2 (Sus scrofa, UniProt P00592)
Construct: purchased Boehringer Mannheim·Yamanouchi K.K. 161454·122416
Sequence (P00592 23-146): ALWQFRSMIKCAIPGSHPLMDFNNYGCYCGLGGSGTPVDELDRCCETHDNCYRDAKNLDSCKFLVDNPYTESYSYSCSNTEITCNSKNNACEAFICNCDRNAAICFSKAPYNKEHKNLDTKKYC
Assay: Phospholipase A2 inhibitory activity, method B (L-α-dipalmitoylphosphatidylcholine substrate)
Assay type: biochemical
Settings: 1,000 ppm, 37°C for 30 minutes, read-out: % inhibition of PLA2 (1,000 ppm)
Values of inhibition at 1000 ppm greater than or equal to 60% map to 1; values below map to 0.

Completed entries (count: 9):
- CS(=O)(=O)Nc1ncc(C(F)(F)F)cc1NC(=O)c1ccc2c(c1)CCC2 [compound 87]: 1
- CCS(=O)(=O)Nc1ncc(C(F)(F)F)cc1NC(=O)c1cccc(C(F)(F)F)c1 [compound 99]: 1
- CCS(=O)(=O)Nc1ncc(C(F)(F)F)cc1NC(=O)c1cccc(F)c1 [compound 98]: 1
- COc1ccc(C(=O)Nc2cc(C(F)(F)F)cnc2NS(C)(=O)=O)cc1 [compound 44]: 1
- CCCCCC(=O)Nc1cc(C(F)(F)F)cnc1NS(=O)(=O)N(C)C [compound 110]: 0
- CS(=O)(=O)Nc1ncc(C(F)(F)F)cc1NC(=O)c1ccco1 [compound 85]: 0
- CC(C)=CC(=O)Nc1cc(C(F)(F)F)cnc1NS(C)(=O)=O [compound 70]: 0
- CCOC(=O)NC(=S)Nc1cc(C(F)(F)F)cnc1NS(C)(=O)=O [compound 18]: 0
- CS(=O)(=O)Nc1ncc(C(F)(F)F)cc1NC(=O)c1cccc(C(F)(F)F)c1 [compound 80]: 1

Attention now turns to another entry.
# check: inhibition at 1000 ppm of COS(=O)(=O)Nc1ncc(C(F)(F)F)cc1NC(=O)c1ccc2c(c1)CCC2 [compound 116] is greater than or equal to 60% 1

Entry source: patent EP0465913B1
